Data provenance: paper PMC10977726

Molecular target: human IgG Fc (Biotin-SP-ChromPure Human IgG, Fc fragment) (human, biotin (Biotin-SP))
Assay: SPR
Details: both partners purified
assayMetric: Kd (nM)
One number for each entry, in nM.

Documented Kd of ENLYFQGECKGKGAKCSSISIHDAHCCTGSCRSGKC (designed binder) [His(6)-SUMO-TEV-Ig-CON-5 fusion protein] : 22.2
